pEC50: −log10 of the molar value.
// primary human T-cells pEC50 records
test readout: pEC50

CC(C)(C)c1nnc(-c2cc3c(cc2F)S(=O)(=O)C[C@H](N)C(=O)N3Cc2ccc(OCC(F)(F)F)cc2)o1	6.04

(A) CC(C)(C)c1nnc(-c2ccc3c(c2)N(Cc2ccc(OCC4CCOCC4)cc2)C(=O)[C@@H](N)CS3(=O)=O)o1
(B) N[C@H]1CS(=O)(=O)c2cc(F)c(-c3nnc(N4CCOC5(CC5)C4)o3)cc2N(Cc2ccc(Cl)cc2)C1=O
(C) CC(=O)N[C@H]1CS(=O)(=O)c2cc(F)c(-c3nnc(C(C)(C)C)o3)cc2N(Cc2ccc(Cl)cc2)C1=O
Request: Arrange the 3 molecules by rising pEC50, starting with the smallest. Please reply with the labels ordered as requested. Many thanks.
Response: C, A, B
(C: 4.97, A: 5.25, B: 6.96)

(P) Cc1ccc(S(C)(=O)=O)cc1-c1nc(-c2cc3c(cc2F)S(=O)(=O)C[C@H](N)C(=O)N3Cc2ccc(Cl)cc2)no1
(Q) N[C@H]1CS(=O)(=O)c2cc(F)c(-c3nc(CC(F)(F)F)no3)cc2N(Cc2ccc(Cl)cc2)C1=O
Request: Lab note: check whether P or Q has the lower measured pEC50. Your answer should be the label of the entry you select.
Response: P

###

- System: primary human T-cells
- method description: Proliferation assay after 5 days (CellTiter-Glo, CD3 stimulation; PBS counter screen)
- Format: cell-based
- experimental context: Homo sapiens, T-cell, 120 h, CD3 stimulation, 5 days; normalized to reference compound A1 as stimulator control = 100%, DMSO neutral control; read-out: Emax proliferation (% activation)
Emax for assorted molecules
Your answer is read as %, so omit the unit and give the number.

Request: Can you share its Emax? I mean this molecule: CCn1cc(-c2cc3c(cc2F)S(=O)(=O)C[C@H](N)C(=O)N3Cc2ccc(Cl)cc2)nn1
Response: 39

Request: Form field: reported Emax of CC(C)(CO)c1nnc(-c2cc3c(cc2F)S(=O)(=O)C[C@H](N)C(=O)N3Cc2ccc(Cl)cc2)o1
Response: 95

Request: Query (molecule): CC[C@H](O)C(=O)N[C@H]1CS(=O)(=O)c2cc(F)c(-c3nnc(C(C)(C)C)o3)cc2N(Cc2ccc(Cl)cc2)C1=O ; field requested: Emax
Response: 82

Request: Name the recorded Emax for N[C@H]1CS(=O)(=O)c2cc(F)c(-c3nnc(C4CCCC(F)(F)C4)o3)cc2N(Cc2ccc(Cl)cc2)C1=O (stereo partly drawn) .
Response: 139

Request: Fill blank: measured Emax of the molecule CNC(=O)N1CCC(C)(c2nc(-c3cc4c(cc3F)S(=O)(=O)C[C@H](N)C(=O)N4Cc3ccc(Cl)cc3)no2)CC1 is ____.
Response: 61

Request: Which Emax value is on record for CC(C)(CC(F)(F)F)Nc1nnc(-c2cc3c(cc2F)S(=O)(=O)C[C@H](N)C(=O)N3Cc2ccc(Cl)cc2)o1 ?
Response: 118

Request: Could you tell me which Emax is on file for CN1CCCC(F)(c2nc(-c3cc4c(cc3F)S(=O)(=O)C[C@H](N)C(=O)N4Cc3ccc(Oc4ccccc4)cc3)no2)C1 (stereo partly drawn) ?
Response: 161

Request: Which Emax value is on record for CC(=O)N1CCC(C)(c2nnc(-c3cc4c(cc3F)S(=O)(=O)C[C@H](N)C(=O)N4Cc3ccc(Cl)cc3)o2)CC1 ?
Response: 95

Request: Returns the measured Emax for the input molecule. Input: N[C@H]1CS(=O)(=O)c2cc(F)c(-c3nnc(NC4CC(C(F)(F)F)C4)o3)cc2N(Cc2ccc(Cl)cc2)C1=O (stereo partly drawn)
Response: 103

Request: I am curious: what Emax value has been reported for CC(C)Oc1ccc(CN2C(=O)[C@@H](N)CS(=O)(=O)c3cc(F)c(-c4nnc(C(C)(C)C)o4)cc32)nc1 ?
Response: 79

Request: Would you mind telling me what Emax value was observed for CC(C)(C)c1nnc(-c2ccc3c(c2)N(Cc2ccc(S(=O)(=O)C(F)(F)F)cc2)C(=O)[C@@H](N)CS3(=O)=O)o1 ?
Response: 82

Request: Reported Emax for Cc1ccc(-c2nnc(-c3cc4c(cc3F)S(=O)(=O)C[C@H](N)C(=O)N4Cc3ccc(Cl)cc3)o2)cn1 : what is it?
Response: 144

Request: Please give the measured Emax for this molecule: N[C@H]1CS(=O)(=O)c2cc(F)c(-c3nnc(-c4ccccc4)o3)cc2N(Cc2ccc(Cl)cc2)C1=O
Response: 115

Request: Looking for the measured Emax of CC(C)(C)c1nnc(-c2cc3c(cc2F)S(=O)(=O)C[C@H](N)C(=O)N3Cc2ccc(Oc3ccccc3)cc2)o1 , can you help?
Response: 127

Request: Recorded Emax for N[C@H]1CS(=O)(=O)c2cc(F)c(-c3nnc(N4CCOCC4)o3)cc2N(Cc2ccc(Cl)cc2)C1=O , please?
Response: 129

Request: Dear colleague, I am looking for the recorded Emax of the following molecule: CC1(Nc2nc(-c3cc4c(cc3F)S(=O)(=O)C[C@H](N)C(=O)N4Cc3ccc(Cl)cc3)no2)CC(F)(F)C1
Response: 156

Request: Quick one: Emax of CC(C)(C)n1ccc(-c2cc3c(cc2F)S(=O)(=O)C[C@H](N)C(=O)N3Cc2ccc(Cl)cc2)n1 ?
Response: 66

Request: Would you kindly share the measured Emax for CC(C)(C)c1nnc(-c2ccc3c(c2)N(Cc2ccc(OC4CCOCC4)cc2)C(=O)[C@@H](N)CS3(=O)=O)o1 ?
Response: 66

Request: Name the reported Emax value associated with the molecule N[C@H]1CS(=O)(=O)c2cc(F)c(-c3nnc(C4CC5(CCOC5)C4)o3)cc2N(Cc2ccc(Cl)cc2)C1=O (stereo partly drawn)
Response: 131

Request: Please give the measured Emax for this molecule: CC(C)(C)NC(=O)c1nc(-c2cc3c(cc2F)S(=O)(=O)C[C@H](N)C(=O)N3Cc2ccc(OC(F)(F)F)cc2)no1
Response: 132
